# Test system: Replicon cells
# experiment: HCV EC50 determination, replicon luciferase assay
# Format: cell-based
# experimental.context: Hepatitis C virus, 72 h; replicon cells, 3 days at 37° C., luciferase activity; read-out: EC50
# EC50 per record follows

{"substance.smiles": "C[C@@]1(O)[C@H](O)[C@@H](CO)O[C@H]1c1scc2c(N)ncnc12", "target.desc": "Replicon cells", "EC50": "90 µM"}
{"substance.smiles": "CC(C)(C)C(=O)SCCOP(=O)(OCCSC(=O)C(C)(C)C)OC[C@H]1O[C@@H](c2scc3c(N)ncnc23)[C@](C)(O)[C@@H]1O", "target.desc": "Replicon cells", "EC50": "6.1 µM"}
{"substance.smiles": "CC(C)(C)C(=O)SCCOP(=O)(OCCSC(=O)C(C)(C)C)OC[C@H]1O[C@@H](c2scc3c(=O)[nH]c(N)nc23)[C@](C)(O)[C@@H]1O", "target.desc": "Replicon cells", "EC50": "24 µM"}
